molecular target: human Nav1.5 channels stably expressed in HEK 293 cells (Homo sapiens, UniProt Q14524); construct: expressed in transfected cells; host or cells: HEK 293; assay: PatchXpress 7000 automated patch-clamp, inactivated state block; format: cell-based; conditions: PatchXpress technique
Sequence (Q14524 whole entry): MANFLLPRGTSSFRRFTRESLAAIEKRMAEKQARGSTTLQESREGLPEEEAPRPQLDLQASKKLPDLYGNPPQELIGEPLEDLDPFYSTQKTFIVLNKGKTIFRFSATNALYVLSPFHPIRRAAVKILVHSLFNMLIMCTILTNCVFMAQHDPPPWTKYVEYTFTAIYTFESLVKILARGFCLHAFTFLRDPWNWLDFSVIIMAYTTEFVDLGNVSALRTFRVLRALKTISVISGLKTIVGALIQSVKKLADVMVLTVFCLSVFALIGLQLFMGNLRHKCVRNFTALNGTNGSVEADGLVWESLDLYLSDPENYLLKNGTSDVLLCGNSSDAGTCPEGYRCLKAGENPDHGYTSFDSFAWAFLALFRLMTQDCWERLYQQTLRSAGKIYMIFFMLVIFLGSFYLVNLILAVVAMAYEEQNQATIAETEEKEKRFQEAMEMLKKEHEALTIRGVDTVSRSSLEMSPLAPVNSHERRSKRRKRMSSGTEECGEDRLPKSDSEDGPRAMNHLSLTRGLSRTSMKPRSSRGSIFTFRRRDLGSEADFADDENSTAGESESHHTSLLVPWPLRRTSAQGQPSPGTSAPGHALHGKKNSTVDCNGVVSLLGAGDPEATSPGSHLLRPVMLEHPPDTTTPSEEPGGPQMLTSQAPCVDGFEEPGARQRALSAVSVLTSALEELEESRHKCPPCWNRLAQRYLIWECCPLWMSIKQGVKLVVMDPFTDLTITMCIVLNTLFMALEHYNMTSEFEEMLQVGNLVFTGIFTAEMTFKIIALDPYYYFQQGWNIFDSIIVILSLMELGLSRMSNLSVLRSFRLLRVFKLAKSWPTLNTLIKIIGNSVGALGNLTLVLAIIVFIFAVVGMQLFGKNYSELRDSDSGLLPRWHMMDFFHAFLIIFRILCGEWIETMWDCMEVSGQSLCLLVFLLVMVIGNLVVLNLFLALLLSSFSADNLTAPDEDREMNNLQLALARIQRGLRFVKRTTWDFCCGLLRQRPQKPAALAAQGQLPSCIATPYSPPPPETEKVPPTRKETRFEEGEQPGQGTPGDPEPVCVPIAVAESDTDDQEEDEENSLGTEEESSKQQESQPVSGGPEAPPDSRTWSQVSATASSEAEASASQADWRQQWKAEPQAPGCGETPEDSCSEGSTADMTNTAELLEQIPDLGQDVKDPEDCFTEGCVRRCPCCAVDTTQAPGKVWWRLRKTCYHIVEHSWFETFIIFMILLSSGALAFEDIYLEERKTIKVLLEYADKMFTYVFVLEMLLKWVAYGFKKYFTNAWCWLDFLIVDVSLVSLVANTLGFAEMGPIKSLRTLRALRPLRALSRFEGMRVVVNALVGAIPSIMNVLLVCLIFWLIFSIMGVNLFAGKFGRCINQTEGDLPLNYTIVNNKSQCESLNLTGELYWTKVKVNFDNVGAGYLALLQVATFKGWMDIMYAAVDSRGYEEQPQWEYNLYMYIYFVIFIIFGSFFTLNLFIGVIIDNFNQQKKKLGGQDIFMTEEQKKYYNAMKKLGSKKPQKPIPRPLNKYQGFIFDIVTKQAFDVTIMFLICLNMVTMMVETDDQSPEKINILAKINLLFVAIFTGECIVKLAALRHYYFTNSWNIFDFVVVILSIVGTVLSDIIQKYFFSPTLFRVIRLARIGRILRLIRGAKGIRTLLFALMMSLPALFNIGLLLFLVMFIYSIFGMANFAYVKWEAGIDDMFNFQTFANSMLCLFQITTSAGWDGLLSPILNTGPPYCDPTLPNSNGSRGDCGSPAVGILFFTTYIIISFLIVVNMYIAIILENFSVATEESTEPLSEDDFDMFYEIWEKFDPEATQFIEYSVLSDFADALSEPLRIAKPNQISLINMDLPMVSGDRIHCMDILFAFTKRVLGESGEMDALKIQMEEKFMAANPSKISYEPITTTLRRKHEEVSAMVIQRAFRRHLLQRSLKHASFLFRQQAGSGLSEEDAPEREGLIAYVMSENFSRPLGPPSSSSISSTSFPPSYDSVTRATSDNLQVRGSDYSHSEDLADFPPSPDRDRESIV
ASSAY READOUT: Ratio 1.5:1.7 = Nav 1.5 potency (nM)/Nav1.7 potency (nM)
Lab note: record just the number, no unit beside it.

These recorded examples may help you get a feel for the data.
COMPOUND: CN(C)CCNC(=O)c1cccc(-c2ccccc2Cn2ncc3cc(S(=O)(=O)Nc4ncns4)c(F)cc32)c1
MEASURED VALUE: 27

COMPOUND: NC/C=C/c1ccccc1Cn1ncc2cc(S(=O)(=O)Nc3ncns3)c(F)cc21
MEASURED VALUE: 560

COMPOUND: O=S(=O)(Nc1nccs1)c1cc2cnn(Cc3ccccc3C3=CCNCC3)c2cc1F
MEASURED VALUE: 326

COMPOUND: Cc1cc2c(cnn2Cc2cccc3c2CC(N)CC3)cc1S(=O)(=O)Nc1nccs1 (centres unmarked)
MEASURED VALUE: 762

COMPOUND: NC1CCc2cccc(Cn3ncc4cc(S(=O)(=O)Nc5ncns5)c(F)cc43)c2C1 (single isomer, unassigned) [Ex-14]
MEASURED VALUE: 1480

Measured Ratio 1.5:1.7 = Nav 1.5 potency (nM)/Nav1.7 potency (nM) for this entry `O=S(=O)(Nc1ncns1)c1cc2cnn(Cc3cccc4c3CNCC4)c2cc1F` on human Nav1.5 channels stably expressed in HEK 293 cells (Homo sapiens, UniProt Q14524): 310

Measured Ratio 1.5:1.7 = Nav 1.5 potency (nM)/Nav1.7 potency (nM) for this entry `NCC#Cc1ccccc1Cn1ncc2cc(S(=O)(=O)Nc3nccs3)c(F)cc21` on human Nav1.5 channels stably expressed in HEK 293 cells (Homo sapiens, UniProt Q14524): 302

Measured Ratio 1.5:1.7 = Nav 1.5 potency (nM)/Nav1.7 potency (nM) for this entry `C[C@H](c1cccc2c1CNCC2)n1ncc2cc(S(=O)(=O)Nc3ncc(Cl)s3)c(F)cc21` on human Nav1.5 channels stably expressed in HEK 293 cells (Homo sapiens, UniProt Q14524): 50

Cited source for all entries: patent US9388179B2
